# assayed.system: Fuc(a1-2)[Gal(a1-3)]Gal(b1-3)GlcNAc(b1-6)GalNAc
# assay.info: glycan array binding signal (z-score within array); higher = stronger binding
# experimental.setup: glycan notation: IUPAC condensed, linker removed
Shown is part of a subset that was picked to be rich in the strongest signals.
# if value of glycan array binding signal (z-score) reaches -0.2, tag 1.0; if it stays below, tag 0.0

Recorded results for 4 binders are shown here.
1) SUN4 (Saccharomyces cerevisiae), P53616 (protein) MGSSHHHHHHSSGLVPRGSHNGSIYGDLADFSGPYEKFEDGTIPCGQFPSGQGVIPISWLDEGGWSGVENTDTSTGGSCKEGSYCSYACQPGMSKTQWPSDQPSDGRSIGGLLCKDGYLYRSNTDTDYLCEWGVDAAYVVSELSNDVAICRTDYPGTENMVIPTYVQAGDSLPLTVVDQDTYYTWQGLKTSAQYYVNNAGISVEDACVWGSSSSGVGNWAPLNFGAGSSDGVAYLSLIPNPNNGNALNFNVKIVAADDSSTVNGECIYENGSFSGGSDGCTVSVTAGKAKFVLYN
0.0
2) EUL D1A first (Oryza sativa) (protein) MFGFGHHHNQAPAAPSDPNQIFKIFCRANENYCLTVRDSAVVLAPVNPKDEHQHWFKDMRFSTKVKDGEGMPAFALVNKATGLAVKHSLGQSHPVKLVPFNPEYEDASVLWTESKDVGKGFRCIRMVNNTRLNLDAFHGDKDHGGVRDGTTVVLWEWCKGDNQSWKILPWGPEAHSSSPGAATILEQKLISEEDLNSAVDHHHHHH
0.0
3) DrGRIFIN (Danio rerio), Q6DGJ1 (protein) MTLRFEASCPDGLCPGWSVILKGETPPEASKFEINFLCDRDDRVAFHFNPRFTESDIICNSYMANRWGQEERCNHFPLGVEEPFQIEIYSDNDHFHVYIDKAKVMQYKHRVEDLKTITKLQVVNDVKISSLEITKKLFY
1.0
4) LBL-152 (Laetiporus bicolor), B0D650 (protein) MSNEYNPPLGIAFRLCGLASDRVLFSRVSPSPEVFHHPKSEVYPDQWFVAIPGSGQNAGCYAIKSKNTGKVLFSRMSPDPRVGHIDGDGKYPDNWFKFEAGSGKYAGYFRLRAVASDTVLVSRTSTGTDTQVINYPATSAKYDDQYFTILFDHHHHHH
1.0

Consider the record given below.
Hello, I need to know if DC-ASGPR S+GEE (Homo sapiens) (protein) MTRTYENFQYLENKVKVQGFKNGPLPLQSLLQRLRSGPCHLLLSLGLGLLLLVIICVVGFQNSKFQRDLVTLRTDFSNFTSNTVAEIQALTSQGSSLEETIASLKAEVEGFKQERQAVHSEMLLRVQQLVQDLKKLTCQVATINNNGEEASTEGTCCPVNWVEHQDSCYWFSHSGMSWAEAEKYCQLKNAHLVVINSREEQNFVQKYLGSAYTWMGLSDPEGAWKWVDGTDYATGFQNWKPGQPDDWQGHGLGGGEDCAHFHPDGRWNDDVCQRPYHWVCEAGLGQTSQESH has measured glycan array binding signal (z-score) not below -0.2. Thanks!
1.0
